Would you kindly list pKd for each of these binders?
- measurement-target: T1, human VEGF (hVEGF) (human, UniProt P15692 181-395)
- T1 construct: also called VEGF-A
- T1 sequence: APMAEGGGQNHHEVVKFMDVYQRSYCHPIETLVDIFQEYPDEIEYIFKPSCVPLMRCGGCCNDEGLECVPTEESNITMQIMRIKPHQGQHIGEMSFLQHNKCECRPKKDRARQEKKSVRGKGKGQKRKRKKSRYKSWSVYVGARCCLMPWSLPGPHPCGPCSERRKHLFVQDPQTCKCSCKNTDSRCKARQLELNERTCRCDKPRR
- method-description: SPR single-cycle
Give bare numbers, as −log10 of the molar value.

Illustrative cases are given below, each with its answer.
* G6.31 HC-Q81W (Fab, name in Kabat numbering, V domains shown, Fab) VH: EVQLVESGGGLVQPGGSLRLSCAASGFTISDYWIHWVRQAPGKGLEWVAGITPAGGYTYYADSVKGRFTISADTSKNTAYLWMNSLRAEDTAVYYCARFVFFLPYAMDYWGQGTLVTVSS VL: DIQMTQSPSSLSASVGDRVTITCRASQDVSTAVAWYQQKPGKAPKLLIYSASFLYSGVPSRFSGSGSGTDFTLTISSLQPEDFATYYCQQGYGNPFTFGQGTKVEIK | 9.35
* G6.31 LC-L73G (Fab, V domains shown, Fab) VH: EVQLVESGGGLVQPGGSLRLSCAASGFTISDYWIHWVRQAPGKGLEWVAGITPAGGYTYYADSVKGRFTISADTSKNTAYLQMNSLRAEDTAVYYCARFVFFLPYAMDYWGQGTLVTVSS VL: DIQMTQSPSSLSASVGDRVTITCRASQDVSTAVAWYQQKPGKAPKLLIYSASFLYSGVPSRFSGSGSGTDFTGTISSLQPEDFATYYCQQGYGNPFTFGQGTKVEIK | 8.96

Please examine the following record next.
Assign pKd to the following record: G6.31 LC-S50M (Fab, V domains shown, Fab) VH: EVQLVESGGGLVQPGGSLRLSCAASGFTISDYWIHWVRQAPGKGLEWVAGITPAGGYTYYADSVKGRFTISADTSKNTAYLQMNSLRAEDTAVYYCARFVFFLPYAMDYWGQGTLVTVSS VL: DIQMTQSPSSLSASVGDRVTITCRASQDVSTAVAWYQQKPGKAPKLLIYMASFLYSGVPSRFSGSGSGTDFTLTISSLQPEDFATYYCQQGYGNPFTFGQGTKVEIK 8.88
